Value source: patent US4704361A

Test: LD50 in albino rats
Settings: rat, in vivo, po; per os, albino rats of 20±1 g
MEASURE_NAME: LD50 (mg/kg)

CC(=O)N[C@H]1[C@H]([C@H](O)[C@H](O)CO)O[C@](OP(=O)(O)OC[C@H]2O[C@@H](n3ccc(N)nc3=O)[C@H](O)[C@@H]2O)(C(=O)O)C[C@@H]1O [CMP-NANA] :: 2400

###

Test: Adsorption and distribution of labeled CMP-NANA in the rat
Assay type: in vivo
Settings: im, Liver, 4 hrs, 20 mg/kg i.m., read-out: Radioactivity level
MEASURE_NAME: tissue uptake at 4 h

[3H]C(O)[C@@H](O)[C@@H](O)[C@@H]1O[C@](OP(=O)(O)OC[C@H]2O[C@@H](n3ccc(N)nc3=O)[C@H](O)[C@@H]2O)(C(=O)O)C[C@H](O)[C@H]1NC(C)=O (stereo partly shown) [[^-3 H]-labeled CMP--NANA] :: 0.9 %ID/g

###

Experiment: Adsorption and distribution of labeled CMP-NANA in the rat
Type: in vivo
Details: im, Kidney, 30 min, 20 mg/kg i.m., read-out: Radioactivity level
Procedure: CMP-NANA [9-^3 H] has been purchased from NEN (New England Nuclear, 6072 Dreieich, West Germany). The rats fasting for about 18 hours, have been treated with CMP-NANA, dissolved in the phosphate buffer, at the dose of 20 mg/kg i.m. (specific activity=1000 mCi/mg). […] 100 μg samples of the previous organs, and an analogous sample of the blood have been dissolved in Soluene 350 (Packard) and have been counted on the scintillation instrument in the liquid phase, on addition of the scintillating liquid. […]
MEASURE_NAME: tissue uptake at 0.5 h

[3H]C(O)[C@@H](O)[C@@H](O)[C@@H]1O[C@](OP(=O)(O)OC[C@H]2O[C@@H](n3ccc(N)nc3=O)[C@H](O)[C@@H]2O)(C(=O)O)C[C@H](O)[C@H]1NC(C)=O (stereo partly shown) [[^-3 H]-labeled CMP--NANA] :: 2.6 %ID/g

###

Test: Adsorption and distribution of labeled CMP-NANA in the rat
Type: in vivo
Conditions: im, Kidney, 1 hr, 20 mg/kg i.m., read-out: Radioactivity level
Method: CMP-NANA [9-^3 H] has been purchased from NEN (New England Nuclear, 6072 Dreieich, West Germany). The rats fasting for about 18 hours, have been treated with CMP-NANA, dissolved in the phosphate buffer, at the dose of 20 mg/kg i.m. (specific activity=1000 mCi/mg). […] 100 μg samples of the previous organs, and an analogous sample of the blood have been dissolved in Soluene 350 (Packard) and have been counted on the scintillation instrument in the liquid phase, on addition of the scintillating liquid. […]
MEASURE_NAME: tissue uptake at 1 h (%ID/g)

[3H]C(O)[C@@H](O)[C@@H](O)[C@@H]1O[C@](OP(=O)(O)OC[C@H]2O[C@@H](n3ccc(N)nc3=O)[C@H](O)[C@@H]2O)(C(=O)O)C[C@H](O)[C@H]1NC(C)=O (stereo partly shown) [[^-3 H]-labeled CMP--NANA] :: 5.2

###

Test: Adsorption and distribution of labeled CMP-NANA in the rat
Assay type: in vivo
Settings: im, Kidney, 4 hrs, 20 mg/kg i.m., read-out: Radioactivity level
MEASURE_NAME: tissue uptake at 4 h (%ID/g)

[3H]C(O)[C@@H](O)[C@@H](O)[C@@H]1O[C@](OP(=O)(O)OC[C@H]2O[C@@H](n3ccc(N)nc3=O)[C@H](O)[C@@H]2O)(C(=O)O)C[C@H](O)[C@H]1NC(C)=O (stereo partly shown) [[^-3 H]-labeled CMP--NANA] :: 1.6
